This collection of values is drawn from paper PMC10035947.

# Test system: HCT-116
# measurement_protocol: NCI SRB assay
# Type: cell-based, human
# condition: HCT-116, 1.00E-5 Molar
Please provide measured Growth Percent for the entries that follow.
Field: numeric (%). Do not append units.

Name the recorded Growth Percent of the compound listed here: `COc1ccc(-c2nc(Nc3ccccc3C(=O)O)c3ccccc3n2)cc1`
37.54

Name the recorded Growth Percent of the compound listed here: `Cc1cccc(-c2nc(Nc3ccc(C(=O)O)cc3)c3ccccc3n2)c1`
81.80

Name the recorded Growth Percent of the compound listed here: `Cc1ccc(-c2nc(Nc3ccccc3C(=O)O)c3ccccc3n2)cc1`
6.70

Name the recorded Growth Percent of the compound listed here: `Cc1ccc(-c2nc(Nc3ccc(C(=O)O)cc3)c3ccccc3n2)cc1`
77.19

Name the recorded Growth Percent of the compound listed here: `Cc1cccc(-c2nc(Nc3ccccc3C(=O)O)c3ccccc3n2)c1`
22.67

Name the recorded Growth Percent of the compound listed here: `Cc1ccc(-c2nc(Nc3cccc(C(=O)O)c3)c3ccccc3n2)cc1`
74.42
